As shown below, each of these compounds has a reported cytotoxicity at 70.5 h value.
# Assay method text: Human HepG2 cell viability assay in 384 well format
# Format: toxicity, cell-based
# Set-up: dose 125 nL, time 70.5 hour; concentration not given beside the values
# Stated conditions: HepG2 cells, read-out: Inhibition
Write the number in % without appending the unit.

# example entries with known answers
| Compound | Units of measure | cytotoxicity at 70.5 h |
| --- | --- | --- |
| O=C(c1ccsc1)N1CCN2C[C@H](OCc3ccccn3)C[C@H]2C1 | % | -10.1 |
| COCCNC(=O)Nc1ccc(C(=O)N2CCSCC2)cc1C | % | -12.4 |
| CCN(CCn1cccn1)C(=O)CN1C(=O)OC[C@@H]1c1ccccc1 | % | -6.78 |
| CN(CCCc1nccn1C)c1nccc(-c2cc(C(=O)O)ccn2)n1 | % | -3.33 |
| COc1ccc(C)cc1S(=O)(=O)NCC(c1cccn1C)N(C)C (centres undefined) | % | -3.74 |

Data request: Param item = Cc1cc(CN2C[C@H]3CC[C@@H]2CN(Cc2[nH]cnc2C)C3)on1 ; retrieve measured cytotoxicity at 70.5 h.
Data returned: -6.39

Data request: Param item = CCN(C)C[C@@H]1CN(S(=O)(=O)c2cccc(Cl)c2)C[C@@H]1CO ; retrieve measured cytotoxicity at 70.5 h.
Data returned: 2.35

Data request: Param item = CN(CC1CCCO1)C1CCN(CCc2ccccn2)CC1 (centres undefined) ; retrieve measured cytotoxicity at 70.5 h.
Data returned: -6.95

Data request: Param item = CC(C#N)CNC(=O)Nc1ccc(-c2ccc[nH]2)cc1 (centres undefined) ; retrieve measured cytotoxicity at 70.5 h.
Data returned: -0.22

Data request: Param item = c1cnc(N2CCCC3(CCN(CC4CCOC4)CC3)C2)nc1 (centres undefined) ; retrieve measured cytotoxicity at 70.5 h.
Data returned: 19

Data request: Param item = CC(C)n1ccc2c(C(=O)NC3CN4CCC3CC4)cccc21 (centres undefined) ; retrieve measured cytotoxicity at 70.5 h.
Data returned: -17.6

Data request: Param item = Cc1nc(C2CCCN2CCc2cccs2)no1 (centres undefined) ; retrieve measured cytotoxicity at 70.5 h.
Data returned: -10.4

Data request: Param item = Cc1nc(COC[C@@H]2CCC[C@@]23CNCCO3)cs1 ; retrieve measured cytotoxicity at 70.5 h.
Data returned: 15.5

Data request: Param item = Cc1cc2ccncc2n1CC1(O)CCN(C(=O)c2ccccn2)CC1 ; retrieve measured cytotoxicity at 70.5 h.
Data returned: -1.41

Data request: Param item = CC1CCN(c2nc(O)cc(C3CC(=O)N(C4CCCCC4)C3)n2)CC1 (centres undefined) ; retrieve measured cytotoxicity at 70.5 h.
Data returned: -8.25

Data request: Param item = COCCN1C[C@@H]2CN(Cc3ccc(F)cc3)C[C@@H]2C1=O ; retrieve measured cytotoxicity at 70.5 h.
Data returned: -9.05

Data request: Param item = CC(O)CN1CCC(CN(C)Cc2cccc(C(=O)N(C)C)c2)CC1 (centres undefined) ; retrieve measured cytotoxicity at 70.5 h.
Data returned: 12.1

Data request: Param item = CN1N=C(C(=O)N2CCCC(CCc3c(F)cccc3F)C2)CCC1=O (centres undefined) ; retrieve measured cytotoxicity at 70.5 h.
Data returned: -8.44

Data request: Param item = N#Cc1ccc(CN2CCCC2Cn2cccn2)cc1 (centres undefined) ; retrieve measured cytotoxicity at 70.5 h.
Data returned: 2.25

Data request: Param item = CC(Oc1ccccc1)C(=O)N1CCCN(Cc2cscn2)CC1 (centres undefined) ; retrieve measured cytotoxicity at 70.5 h.
Data returned: 6.19

Data request: Param item = CCS(=O)(=O)CC(=O)NC(c1ccccc1)C1CCCCC1 (centres undefined) ; retrieve measured cytotoxicity at 70.5 h.
Data returned: 2.89

Data request: Param item = O=C(Cc1ccn[nH]1)N1CCc2cc(Br)sc2C1 ; retrieve measured cytotoxicity at 70.5 h.
Data returned: -6.46

Data request: Param item = Cc1n[nH]c(C2CN(CCCOc3cccc(Cl)c3)CCO2)n1 (centres undefined) ; retrieve measured cytotoxicity at 70.5 h.
Data returned: -14.2

Data request: Param item = Cc1cc(C2CCC2)nc(N(C)Cc2cnccn2)n1 ; retrieve measured cytotoxicity at 70.5 h.
Data returned: -6.23

====

# Assay method text: Human HepG2 cell viability assay in 384 well format
# Assay type: toxicity, cell-based
# Design: dose 125 nL, time 70.5 hour; concentration not given beside the values
# Stated conditions: HepG2 cells, read-out: Inhibition
As shown below, each of these compounds has a reported cytotoxicity at 70.5 h value.
Write the number in % without appending the unit.

# example entries with known answers
| Compound | cytotoxicity at 70.5 h / % |
| --- | --- |
| O=C(c1ccoc1)N1CC[C@@H]2[C@H]1CCC(=O)N2c1ccccc1 | -7.05 |
| Cc1ccnc(N2CCCC(c3noc(C(C)C)n3)C2)n1 (centres undefined) | 6.3 |
| CNC(=O)c1cccnc1NCc1ccc(Cn2ccnc2)cc1 | 34.2 |
| CCCc1nnc2sc(-c3cc(C(C)C)n[nH]3)nn12 | 15.4 |
| CC(C)c1noc(CN2CCN(C(=O)c3ccncc3F)CC2)n1 | -9.24 |
| Cc1ccc(N2CCC3(CN(Cc4ccncc4)CCC3(F)F)C2)nn1 (centres undefined) | -1.36 |

Data request: Param item = CCN1CC(C(=O)NCCc2csc(-c3ccncc3)n2)CC1=O (centres undefined) ; retrieve measured cytotoxicity at 70.5 h.
Data returned: -4.27

Data request: Param item = CCCn1nc2c(cc1=O)CN(Cc1nc(-c3ccoc3)no1)CC2 ; retrieve measured cytotoxicity at 70.5 h.
Data returned: -2.82

Data request: Param item = COC(=O)CNC(=O)CCCn1cnc2ccccc2c1=O ; retrieve measured cytotoxicity at 70.5 h.
Data returned: -1.4

Data request: Param item = Fc1ccccc1OCCc1cc(C2CNCCO2)n[nH]1 (centres undefined) ; retrieve measured cytotoxicity at 70.5 h.
Data returned: -5.54

Data request: Param item = N#CCC(=O)NCc1nnc2n1CCN(Cc1nccs1)C2 ; retrieve measured cytotoxicity at 70.5 h.
Data returned: -4.61

Data request: Param item = O=S(=O)(C1CC1)N1CCC2(CC1)CC(Oc1cccnc1)CO2 (centres undefined) ; retrieve measured cytotoxicity at 70.5 h.
Data returned: -11.5

Data request: Param item = Cn1cc(CN2CCOC3(CCCN(c4cccc(F)c4)C3)C2)cn1 (centres undefined) ; retrieve measured cytotoxicity at 70.5 h.
Data returned: -7.93

Data request: Param item = Cc1nc(N2CCCC2)nc2c1CN(C(=O)N(C)C)CC2 ; retrieve measured cytotoxicity at 70.5 h.
Data returned: -1.53

Data request: Param item = O=C(CCC1CCCN(C(=O)CCN2CCCCO2)C1)N1CCCC1 (centres undefined) ; retrieve measured cytotoxicity at 70.5 h.
Data returned: -5.73

Data request: Param item = O=C(O)[C@]12CCCN(Cc3ccco3)C[C@H]1CN(c1ncccn1)C2 ; retrieve measured cytotoxicity at 70.5 h.
Data returned: -12.1

Data request: Param item = Cc1nc(CN2CCCC(NCc3cccc(C(N)=O)c3)C2)no1 (centres undefined) ; retrieve measured cytotoxicity at 70.5 h.
Data returned: -3.45

Data request: Param item = O=C1CNc2ncnc(N3CCN(c4ccccc4F)CC3)c2N1 ; retrieve measured cytotoxicity at 70.5 h.
Data returned: 16.1

====

# Assay method text: Human HepG2 cell viability assay in 384 well format
# Format: toxicity, cell-based
# Design: dose 125 nL, time 70.5 hour; concentration not given beside the values
# Stated conditions: HepG2 cells, read-out: Inhibition
As shown below, each of these molecules has a reported cytotoxicity at 70.5 h value.
Write the number in % without appending the unit.

| Molecule | cytotoxicity at 70.5 h, % |
| --- | --- |
| Cc1cc(CN2CCC(CNS(=O)(=O)c3ccc(Br)s3)CC2)c(C)o1 | -7.28 |

Data request: Param item = COc1cc(NC(=O)c2cc(Cl)ccc2F)c(C(=O)N(C)C)cc1OC ; retrieve measured cytotoxicity at 70.5 h.
Data returned: -15.4

Data request: Param item = COCCN1C[C@@H]2[C@@H](OC)CCN(Cc3ccncc3)[C@@H]2C1 ; retrieve measured cytotoxicity at 70.5 h.
Data returned: -0.354

====

# Assay method text: Human HepG2 cell viability assay in 384 well format
# Assay type: toxicity, cell-based
# Parameters: dose 125 nL, time 70.5 hour; concentration not given beside the values
# Stated conditions: HepG2 cells, read-out: Inhibition
As shown below, each of these compounds has a reported cytotoxicity at 70.5 h value.
Write the number in % without appending the unit.

# example entries with known answers
| Compound | cytotoxicity at 70.5 h (%) |
| --- | --- |
| O=C(c1ccc2nccn2c1)N1CCC(CCn2cccn2)CC1 | -9.36 |
| OC(COCc1ccc(Cl)cc1)CN1CC(n2cccn2)C1 (stereo unspecified) | -2.28 |
| CC(C#N)CNC(=O)Nc1ccc(-c2cc[nH]n2)cc1 (stereo unspecified) | -1.44 |
| CCCS(=O)(=O)N1CC[C@H]2O[C@@H](c3nc(C)no3)CC[C@H]21 | -21.7 |
| CCc1oc(C(=O)N[C@@H]2c3ccccc3C[C@@H]2O)cc1CN1CCCC1 | -6.15 |

Note: attention shifts to another entry.
Data request: Param item = CC(=O)N1CCN(C(=O)NC(C)C)CC2(CNC(=O)C2)C1 (stereo unspecified) ; retrieve measured cytotoxicity at 70.5 h.
Data returned: -28.3

Every entry's value here was drawn from ChEMBL document CHEMBL3507680.
